Taken from patent US9388122B2.

# Tested on: Human cervical cancer HeLa cells (cell strain: 15S3D)
# EXPERIMENTAL_DETAILS: Measurement of organ distribution in cancer-bearing mice
# CONDITION_CONTEXT: from SUV (organ)/SUV (blood) of the organs, 1 hour after administration
READOUT_TYPE: specificity of accumulation to tumor

COMPOUND: [11CH3]Oc1ccc(C[C@H](N)C(=O)O)cc1 [L-[^11C]MT, O—[^11C]methyl-L-tyrosine, reference compound]
RESULT: specific to the tumor

COMPOUND: C[11CH2]Oc1ccc(C[C@@H](N)C(=O)O)cc1 [D-[^11C]ET, O—[^11C]ethyl-D-tyrosine]
RESULT: specific to the tumor
